Values were extracted from PubChem BioAssay AID717.

Biological target: Bifunctional epoxide hydrolase 2 (Homo sapiens) (UniProt P34913)
Sequence (P34913 whole entry, looked up): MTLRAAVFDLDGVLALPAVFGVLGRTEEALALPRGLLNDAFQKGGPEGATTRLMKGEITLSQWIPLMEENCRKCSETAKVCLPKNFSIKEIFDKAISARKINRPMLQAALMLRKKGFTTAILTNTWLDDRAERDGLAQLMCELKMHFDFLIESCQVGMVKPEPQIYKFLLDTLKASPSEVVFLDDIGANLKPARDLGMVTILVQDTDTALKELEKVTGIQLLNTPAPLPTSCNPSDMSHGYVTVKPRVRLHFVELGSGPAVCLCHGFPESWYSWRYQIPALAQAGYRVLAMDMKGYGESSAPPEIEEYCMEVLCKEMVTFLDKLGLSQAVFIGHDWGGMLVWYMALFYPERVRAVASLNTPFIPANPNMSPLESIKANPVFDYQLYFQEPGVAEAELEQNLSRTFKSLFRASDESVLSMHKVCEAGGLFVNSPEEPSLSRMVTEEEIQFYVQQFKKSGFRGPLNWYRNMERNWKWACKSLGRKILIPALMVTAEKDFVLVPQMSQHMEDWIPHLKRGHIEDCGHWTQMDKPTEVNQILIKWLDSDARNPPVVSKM
Test: soluble epoxide hydrolase activators, primary screen, biochemical, human sEH (AID 717)
Conditions: purified human sEH enzymatic activity, activator screen; at 2 µM; stronger effect = higher value
Screen size: about 91,000 compounds; about 40 (0.04%) were called active. Not all results are given here.

COMPOUND: Cc1cc(C)c2c(-n3cccc3)c(C(=O)NNS(=O)(=O)c3ccc(F)cc3)sc2n1
SYSTEM: Bifunctional epoxide hydrolase 2 (Homo sapiens) (UniProt P34913)
activation: 11.1% (inactive)
//
COMPOUND: Cc1ccc2c(c1)-c1c(ssc1=S)C(C)(C)N2C(=O)CN1C(=O)c2ccccc2C1=O
SYSTEM: Bifunctional epoxide hydrolase 2 (Homo sapiens) (UniProt P34913)
activation: 25.4% (inactive)
//
COMPOUND: O=C(CN1C(=O)NC(Cc2ccccc2)(Cc2ccccc2)C1=O)NCC1CCCCC1
SYSTEM: Bifunctional epoxide hydrolase 2 (Homo sapiens) (UniProt P34913)
activation: 11.9% (inactive)
//
COMPOUND: CC(=O)NS(=O)(=O)c1ccc(NC(=O)/C=C/c2ccccc2Cl)cc1
SYSTEM: Bifunctional epoxide hydrolase 2 (Homo sapiens) (UniProt P34913)
activation: -14.4% (inactive)
//
COMPOUND: Cc1nn(C)c(Oc2ccccc2)c1[N+](=O)[O-]
SYSTEM: Bifunctional epoxide hydrolase 2 (Homo sapiens) (UniProt P34913)
activation: -3% (inactive)
//
COMPOUND: COc1ccc(/C=N/Nc2nc3ccccc3c(=O)[nH]2)cc1
SYSTEM: Bifunctional epoxide hydrolase 2 (Homo sapiens) (UniProt P34913)
activation: 10% (inactive)
//
COMPOUND: CC(C)C(NS(=O)(=O)c1cccs1)C(=O)Nc1nc(C(C)(C)C)cs1 (stereo not given)
SYSTEM: Bifunctional epoxide hydrolase 2 (Homo sapiens) (UniProt P34913)
activation: -6% (inactive)
//
COMPOUND: CC(Oc1ccc(Cl)cc1Cl)C(=O)/C=C/N(C)C (stereo not given)
SYSTEM: Bifunctional epoxide hydrolase 2 (Homo sapiens) (UniProt P34913)
activation: -10% (inactive)
//
COMPOUND: C=CCn1c(Cn2nnc3ccccc32)nnc1SCC(=O)N/N=C/c1cc(Br)cc(OC)c1O
SYSTEM: Bifunctional epoxide hydrolase 2 (Homo sapiens) (UniProt P34913)
activation: -14.1% (inactive)
//
COMPOUND: O=C(OCN1C(=O)c2ccccc2C1=O)/C(=C\c1ccco1)NC(=O)c1ccccc1
SYSTEM: Bifunctional epoxide hydrolase 2 (Homo sapiens) (UniProt P34913)
activation: -78.7% (inactive)
//
COMPOUND: Cc1ccc(NC(=S)NC2CCCC2)cc1
SYSTEM: Bifunctional epoxide hydrolase 2 (Homo sapiens) (UniProt P34913)
activation: -29.3% (inactive)
//
COMPOUND: Cc1cc(-c2cccs2)nc(-n2cccc2)n1
SYSTEM: Bifunctional epoxide hydrolase 2 (Homo sapiens) (UniProt P34913)
activation: -0.3% (inactive)
//
COMPOUND: O=C(CSc1ncnc2c1cnn2CCc1ccccc1)Nc1ccc(F)cc1
SYSTEM: Bifunctional epoxide hydrolase 2 (Homo sapiens) (UniProt P34913)
activation: -20.6% (inactive)
//
COMPOUND: O=C(CSCc1ccc([N+](=O)[O-])cc1)NCCSCc1ccccc1
SYSTEM: Bifunctional epoxide hydrolase 2 (Homo sapiens) (UniProt P34913)
activation: -17.4% (inactive)
//
COMPOUND: Cc1ccc(NC(=S)Nc2ncccc2C)c(C)c1
SYSTEM: Bifunctional epoxide hydrolase 2 (Homo sapiens) (UniProt P34913)
activation: -5.2% (inactive)
//
COMPOUND: CCn1c(SCc2ccc(C)cc2)nnc1-c1nn(-c2ccccc2)ccc1=O
SYSTEM: Bifunctional epoxide hydrolase 2 (Homo sapiens) (UniProt P34913)
activation: 17.2% (inactive)
//
COMPOUND: COc1cc(C(=S)N2CCOCC2)cc(OC)c1OC(=O)c1cc([N+](=O)[O-])c(C)c([N+](=O)[O-])c1
SYSTEM: Bifunctional epoxide hydrolase 2 (Homo sapiens) (UniProt P34913)
activation: -3.8% (inactive)
//
COMPOUND: C(=N/N1CCN(c2ccccc2)CC1)/c1cccs1
SYSTEM: Bifunctional epoxide hydrolase 2 (Homo sapiens) (UniProt P34913)
activation: 4.8% (inactive)
//
COMPOUND: O=C(O)c1ccccc1NC(=S)NC(NC(=O)c1ccccc1[N+](=O)[O-])C(Cl)(Cl)Cl (stereo not given)
SYSTEM: Bifunctional epoxide hydrolase 2 (Homo sapiens) (UniProt P34913)
activation: -9.3% (inactive)
//
COMPOUND: Cc1noc(C)c1C(=O)N(CC(=O)NC1CCCC1)Cc1ccccc1F
SYSTEM: Bifunctional epoxide hydrolase 2 (Homo sapiens) (UniProt P34913)
activation: 5.6% (inactive)

====

Target: Bifunctional epoxide hydrolase 2 (Homo sapiens)
Assay: soluble epoxide hydrolase activators, primary screen, biochemical, human sEH (AID 717)
Conditions: purified human sEH enzymatic activity, activator screen; at 2 µM; stronger effect = higher value
Screen size: about 91,000 compounds; about 40 (0.04%) were called active. Only a sample is shown.

MOLECULE: COC(=O)CNC(=O)c1ccccc1[N+](=O)[O-]
activation, %: 18.9
//
MOLECULE: Cc1ccc(C)c(NC(=O)C2Cc3ccccc3CN2C(=O)OCc2ccccc2)c1 (stereo not drawn)
activation, %: 7.9
//
MOLECULE: CCOC(=O)C1=C(CN2CCc3ccccc32)NC(=O)NC1c1cc(C)ccc1C (stereo not drawn)
activation, %: 7.8
//
MOLECULE: COc1ccc(-c2cc(C(=O)n3cnc4ccccc43)c3ccccc3n2)cc1
activation, %: 11.7
//
MOLECULE: CCn1cc(C(=O)N/N=C(/C)c2ccc(F)cc2)c(=O)c2cc(F)c(N3CCCC3)cc21
activation, %: 11.6
//
MOLECULE: CCOC(=O)COc1cc(OCC(=O)OCC)c2c(=O)cc(-c3ccccc3)oc2c1
activation, %: 15.3
//
MOLECULE: CCCCNCc1ccc(SC)cc1
activation, %: -8.5
//
MOLECULE: O=C(CCNS(=O)(=O)c1ccccc1C(F)(F)F)NCc1ccc2c(c1)OCO2
activation, %: 3.4
//
MOLECULE: COc1ccc(Cl)cc1NC(=O)CN(C)C(=O)CNC(=O)C12CC3CC(CC(C3)C1)C2
activation, %: -13.2
//
MOLECULE: O=C(CCCOc1ccccc1)NCc1ccco1
activation, %: -2.8
//
MOLECULE: Cn1nc([N+](=O)[O-])nc1Sc1ccc(C(C)(C)C)cc1
activation, %: -5.2
//
MOLECULE: COc1ccc([N+](=O)[O-])cc1NC(=O)CCc1ccccc1
activation, %: -7.7
//
MOLECULE: Nc1c(-c2ccc(F)cc2)cnc2ncnn12
activation, %: -1.1
//
MOLECULE: COC(=O)c1ccccc1OCC(=O)N1CCN(c2ccc(Cl)cc2)CC1
activation, %: -44.9
//
MOLECULE: NC(=O)COc1ccc(/C=N/NC(=O)C2CCCN2S(=O)(=O)c2ccc(Cl)cc2)cc1 (stereo not drawn)
activation, %: -1.2
//
MOLECULE: CCOC(=O)NNC(=O)c1ccc(Cl)cc1
activation, %: 0.5
//
MOLECULE: O=C(CSc1ccccc1)Nc1ccc(NC(=O)c2ccco2)cc1
activation, %: -17.6
//
MOLECULE: CCOC(=O)C1CN(S(=O)(=O)c2ccc(F)cc2)C1
activation, %: 6.7
//
MOLECULE: COc1ccc(/C=C(/NC(=O)c2ccc(C)cc2)c2nc3ccccc3[nH]2)cc1OC
activation, %: 4.1
//
MOLECULE: CCCCNC(=S)NNC(=O)c1cc(C)on1
activation, %: -1.6
//
MOLECULE: CCOC(=O)c1c(NC(=O)c2ccc(N3CCOCC3)c([N+](=O)[O-])c2)sc(C)c1C
activation, %: -11.3
//
MOLECULE: COC(=O)c1c(-c2cccs2)csc1NC(=O)CSc1ncnc2sc(C)c(C)c12
activation, %: -7
//
MOLECULE: c1cnc(Nc2nc(-c3ccc4ccccc4c3)cs2)nc1
activation, %: 9.6
